- tgt: KRAS-WT (Homo sapiens, UniProt P01116)
- Sequence (P01116 with tags, fused parts or gaps isoform P01116-2): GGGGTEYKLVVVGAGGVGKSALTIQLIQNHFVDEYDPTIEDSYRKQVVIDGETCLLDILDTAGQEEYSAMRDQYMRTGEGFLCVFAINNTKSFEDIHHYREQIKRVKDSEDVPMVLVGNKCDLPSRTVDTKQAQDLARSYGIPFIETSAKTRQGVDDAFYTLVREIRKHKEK
- procedure-summary: SOS-catalyzed nucleotide exchange assay (Procedure A, TR-FRET), KRAS-WT
- Format: biochemical
- condition-description: nucleotide exchange, read-out: KRAS WT GNE IC50
Recorded IC50 values for a group of compounds are listed next.

compound	IC50 (µM)
C#Cc1cccc2cc3[nH]ncc3c(-c3nccc4c3sc3nc(OC[C@@]56CCCN5C[C@H](F)C6)nc(N5CCOC[C@@](C)(O)C5)c34)c12	0.00438
CN1CCc2cc3[nH]ncc3c(-c3nccc4c3sc3nc(OC[C@@]56CCCN5C[C@H](F)C6)nc(N5CCOC[C@@](C)(O)C5)c34)c21	0.161
Cc1cc2[nH]ncc2c(-c2nccc3c4c(N5CC6CCC(F)(C5)N6)nc(OC[C@@]56CCCN5C[C@H](F)C6)nc4n(C)c23)c1C(F)(F)F (single isomer, unassigned)	0.975
